- study.system: wild type MLL1 four-member complex (MLL1-4C) (Homo sapiens, UniProt Q03164)
- run.description: MLL1 LC-MS Assay
- Type: biochemical
- measurement.context: read-out: LCMS
Measured IC50 accompanies every entry in the list below.

See these solved cases before continuing.
> print(dat)
                                   molecule                              study.system  measured.parameter        result
1  COCc1c(F)ccc(N2CC[C@](N)(C(=O)NC3CC3)C2)c1Cn1cnc2c(N)ncnc21 [Example 77]  wild type MLL1 four-member complex (MLL1-4C) (Homo sapiens, UniProt Q03164)                IC50  50 to 100 nM
2  CCc1cc(-c2ccccc2F)cc(N2CC[C@](N)(C(=O)NC3CC3)C2)c1Cn1cnc2c(N)ncnc21 [Example 92]  wild type MLL1 four-member complex (MLL1-4C) (Homo sapiens, UniProt Q03164)                IC50       < 50 nM
3  Nc1ncnc2c1ncn2Cc1c(Br)cc(Cl)cc1N1CC[C@](N)(COCC(=O)NC2CC2)C1 [Example 30]  wild type MLL1 four-member complex (MLL1-4C) (Homo sapiens, UniProt Q03164)                IC50      > 100 nM
4  CN(C)Cc1c(F)ccc(N2CC[C@](N)(C(=O)NC3CC3)C2)c1Cn1cnc2c(N)ncnc21 [Example 45]  wild type MLL1 four-member complex (MLL1-4C) (Homo sapiens, UniProt Q03164)                IC50  50 to 100 nM
5  CCc1cc(-c2ccccn2)cc(N2CC[C@](N)(C(=O)NC3CC3)C2)c1Cn1cnc2c(N)ncnc21 [Example 99]  wild type MLL1 four-member complex (MLL1-4C) (Homo sapiens, UniProt Q03164)                IC50       < 50 nM

I'm curious: which IC50 was measured for CCN(CC)Cc1c(F)ccc(N2CC[C@](N)(C(=O)NC3CC3)C2)c1Cn1cnc2c(N)ncnc21 [Example 67] tested on wild type MLL1 four-member complex (MLL1-4C) (Homo sapiens, UniProt Q03164)?
50 to 100 nM

What reported IC50 corresponds to CCc1cc(-c2cnn(C)c2)cc(N2CC[C@](N)(C(=O)NC3CC3)C2)c1Cn1cnc2c(N)ncnc21 [Example 96] on wild type MLL1 four-member complex (MLL1-4C) (Homo sapiens, UniProt Q03164)?
< 50 nM

Lookup: IC50 / wild type MLL1 four-member complex (MLL1-4C) (Homo sapiens, UniProt Q03164) / CCOC(=O)CC[C@@]1(N)CCN(c2cc(Cl)cc(Br)c2Cn2cnc3c(N)ncnc32)C1 [Example 34]
> 100 nM

Notebook: pull reported IC50 for wild type MLL1 four-member complex (MLL1-4C) (Homo sapiens, UniProt Q03164), entry CC1(C)CCN(Cc2c(F)ccc(N3CC[C@](N)(C(=O)NC4CC4)C3)c2Cn2cnc3c(N)ncnc32)C1 [Example 63]
> 100 nM

Give recorded IC50 with wild type MLL1 four-member complex (MLL1-4C) (Homo sapiens, UniProt Q03164) for the following molecule: CCc1cc(Cl)cc(N2CC[C@](N)(CCc3nn[nH]n3)C2)c1Cn1cnc2c(N)ncnc21 [Example 40]
> 100 nM

Under wild type MLL1 four-member complex (MLL1-4C) (Homo sapiens, UniProt Q03164): IC50 value of Nc1ncnc2c1ncn2Cc1c(N2CC[C@](N)(C(=O)NC3CC34CCOCC4)C2)ccc(F)c1C(F)(F)F (stereo partly drawn) [Example 126] ?
50 to 100 nM

State its IC50 on wild type MLL1 four-member complex (MLL1-4C) (Homo sapiens, UniProt Q03164): C#Cc1c(F)ccc(N2CC[C@](N)(C(=O)NC3CC3)C2)c1Cn1cnc2c(N)ncnc21 [Example 5]
50 to 100 nM

// lookup IC50 | system=wild type MLL1 four-member complex (MLL1-4C) (Homo sapiens, UniProt Q03164) | key= Nc1ncnc2c1ncn2Cc1c(N2CC[C@](N)(c3ccccn3)C2)ccc(F)c1C(F)(F)F [Example 23]
< 50 nM

GET /values?readout=IC50&system=wild type MLL1 four-member complex (MLL1-4C) (Homo sapiens, UniProt Q03164)&item= COc1ccc(Br)c(Cn2cnc3c(N)ncnc32)c1N1CC[C@](N)(C(=O)NC2CC2)C1 [Example 21]
50 to 100 nM

// lookup IC50 | system=wild type MLL1 four-member complex (MLL1-4C) (Homo sapiens, UniProt Q03164) | key= CCc1c(F)ccc(N2CC[C@](N)(C(=O)NC3CC3)C2)c1Cn1cnc2c(N)ncnc21 [Example 10]
< 50 nM
